Entries and their composite z-score values follow.
# Test system: Inhibin beta A chain (activin A)
# test_summary: small molecules binding activin A – biochemical, small-molecule microarray, 635 nm fluorescence scan, primary screen (AID 1107);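 also: mouse activin A protein probed at 4.33 µg/mL on printed slides; score merges bound-protein fluorescence near 667 nm with spot signal-to-noise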
# condition_info: INHBA, higher = more signal

Past entries and their recorded results:
O=C1O[C@@H](c2ccccc2)[C@@H](c2ccccc2)N2[C@@H](c3ccc(OCCO)cc3)[C@]3(C(=O)Nc4ccc(C#CCCO)cc43)[C@@H](C(=O)NC[C@H](O)c3ccccc3)[C@H]12; 0.73
C=CCN1Cc2ccccc2[C@@H]2OC(c3ccc(OCCCO)cc3)=N[C@]2(CCS(=O)(=O)c2ccccc2)C1=O; 1.1
CCCCN1CC=CC23O[C@@H]4/C=C\CCCOC(=O)C4[C@H]2C(=O)N(CCCO)[C@@H]3C1=O (some centres not stated); -0.27

Task item: Checklist item: composite z-score tested on Inhibin beta A chain (activin A), entry Cc1ccc(C2C3C(=O)CC4C(=O)N(c5ccccc5)C(=O)C4C3CN2S(=O)(=O)c2ccc(C)cc2)cc1 (configuration not stated) , value?
Reply: 0.385

Task item: Checklist item: composite z-score tested on Inhibin beta A chain (activin A), entry C[C@H]1C2[C@H](Cc3ccccc3)NC(=O)[C@]23C(=O)NCC(=O)N2CCC[C@H]2C(=O)NC/C=C/CCC/C=C/C3[C@@H]2O[C@]12C (some centres not stated) , value?
Reply: 1.55

Task item: Checklist item: composite z-score tested on Inhibin beta A chain (activin A), entry COc1ccc(C(O)C2C=CC3C(=O)N(C)C(=O)C3N2NC(=O)OC(C)(C)C)c2ccccc12 (configuration not stated) , value?
Reply: 0.441

Task item: Checklist item: composite z-score tested on Inhibin beta A chain (activin A), entry CO[C@H]1O[C@H](CO)[C@@H](OC(=O)Nc2ccc(Oc3ccccc3)cc2)[C@H](OC(=O)Nc2ccc3c(c2)OCO3)[C@@H]1OC(=O)Nc1ccc2c(c1)OCO2 , value?
Reply: 0.707

* * *

Entries and their z-score values follow.
# test_summary: optical density shifts of acrAB sulA E. coli – strain DRC41, OD650, 48 h, E. coli filamentation inducer project, primary screen (AID 1152);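 also: E. coli MC1000 strain DRC41 lacking acrAB efflux pump and sulA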
# condition_info: higher = more signal, called active from +8 up or from −8 down
Answer with the value's number alone.

Past entries and their recorded results:
COC(=O)[C@@]1(CCC(=O)OC(C)(C)C)N=C(c2ccc(OCCCO)cc2)O[C@H]1c1ccccc1; -1.12
CCCCN1CC=CC23O[C@@H]4/C=C\CCCOC(=O)C4[C@H]2C(=O)N(CCCCCO)[C@@H]3C1=O (some centres not stated); -0.852
C=CCC(OC(C)=O)[C@@H]1[C@@H](N(Cc2ccc(-c3cccc(C(F)(F)F)c3)o2)C(=O)c2cccc3ccccc23)c2cc(OCCCO)ccc2N1C(=O)Cc1ccc2ccccc2c1 (some centres not stated); -0.599
COCCOC(=O)N1C(=O)[C@@]2(c3cc(C#CCCO)ccc31)[C@H](c1ccc(OCCO)cc1)N1[C@H](c3ccccc3)[C@H](c3ccccc3)OC(=O)[C@H]1[C@@H]2C(N)=O; 0.391
CC(=O)NCCCC[C@@H]1NC(=O)[C@H]2C[C@@H](C(=O)NCCCCCNC(=O)CS)[C@@H](c3ccc(O)cc3)N2C1=O; -0.0078

Task item: Give the measured z-score of C=C(CCCC)/C(=C/C[C@@H](OC(C)=O)c1ccccc1OCCO)c1cc(C(=O)OC)ccc1OC .
Reply: 0.725

Task item: Give the measured z-score of COC(=O)[C@@]1(Cc2ccccc2)[C@H]2c3cc(C(=O)N4CCCC4)n(Cc4ccc(O)c(OC)c4)c3C[C@H]2CN1C(=O)c1ccccc1 .
Reply: -1.64

Source: PubChem BioAssay
